test system: Haemophilus influenzae; experiment: Minimum inhibitory concentration required for antibacterial activity against Haemophilus influenzae Q1; assay type: functional
Exercise: state measured MIC for each of the compounds provided.
Report the figure in µg/mL without appending any unit label.

Exercise: Under Haemophilus influenzae: MIC value of CO/N=C(\C(=O)N[C@@H]1C(=O)N2C(C(=O)[O-])=C(C3CCC(=O)O3)CS[C@H]12)c1csc(N)n1.[Na+] (some centres undefined) ?
Solution: 0.06

Exercise: Under Haemophilus influenzae: MIC value of CO/N=C(\C(=O)N[C@@H]1C(=O)N2C(C(=O)[O-])=C(CC3C=CC(=O)O3)CS[C@H]12)c1csc(N)n1.[Na+] (some centres undefined) ?
Solution: 0.06
